Target: T1, C-terminal domain-deleted human Regnase-1 (amino acids 1 to 546) with N-terminal FLAG tag and C-terminal BirA … (human, UniProt Q5D1E8 1-546)
T1 sequence: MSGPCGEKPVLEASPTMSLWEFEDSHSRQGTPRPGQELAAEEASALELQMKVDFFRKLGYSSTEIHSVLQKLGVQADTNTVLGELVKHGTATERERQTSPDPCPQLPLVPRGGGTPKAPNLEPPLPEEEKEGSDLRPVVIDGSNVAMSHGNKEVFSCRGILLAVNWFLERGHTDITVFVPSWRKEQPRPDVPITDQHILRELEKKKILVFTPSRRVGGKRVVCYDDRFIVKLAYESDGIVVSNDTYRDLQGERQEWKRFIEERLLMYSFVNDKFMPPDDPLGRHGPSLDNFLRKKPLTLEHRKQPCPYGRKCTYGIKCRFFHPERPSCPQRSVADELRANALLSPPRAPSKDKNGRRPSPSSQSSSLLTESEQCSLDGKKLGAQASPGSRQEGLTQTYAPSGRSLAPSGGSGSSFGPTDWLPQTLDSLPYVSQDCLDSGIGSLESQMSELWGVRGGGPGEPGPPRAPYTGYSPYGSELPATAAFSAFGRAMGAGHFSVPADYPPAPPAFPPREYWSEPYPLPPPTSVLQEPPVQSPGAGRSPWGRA
Experiment: cell-based or functional assay
readout kind: 50% inhibition concentration, Regnase-1 phosphorylation by IKKβ (AlphaScreen) (µM)
Please give a number only; it is taken to be in µM.

XNFNSAYYRAIWD (HELM PEPTIDE1{[meA].N.F.N.S.A.Y.Y.R.A.I.W.D.[C1CCN([*:1])C1]}$PEPTIDE1,PEPTIDE1,1:R1-13:R3$$$V2.0; SMILES CC[C@H](C)[C@@H]1NC(=O)[C@H](C)NC(=O)[C@H](CCCNC(=N)N)NC(=O)[C@H](Cc2ccc(O)cc2)NC(=O)[C@H](Cc2ccc(O)cc2)NC(=O)[C@H](C)NC(=O)[C@H](CO)NC(=O)[C@H](CC(N)=O)NC(=O)[C@H](Cc2ccccc2)NC(=O)[C@H](CC(N)=O)NC(=O)[C@H](C)N(C)C(=O)C[C@@H](C(=O)N2CCCC2)NC(=O)[C@H](Cc2c[nH]c3ccccc23)NC1=O) [PP7]
4.5

# context switch: different binder, same 50% inhibition concentration, Regnase-1 phosphorylation by IKKβ (AlphaScreen)
Exercise: Quote 50% inhibition concentration, Regnase-1 phosphorylation by IKKβ (AlphaScreen) reported for XDIWFDYWDYD (HELM PEPTIDE1{[meA].D.I.W.F.D.Y.W.D.Y.D.[C1CCN([*:1])C1]}$PEPTIDE1,PEPTIDE1,1:R1-11:R3$$$V2.0; SMILES CC[C@H](C)[C@@H]1NC(=O)[C@H](CC(=O)O)NC(=O)[C@H](C)N(C)C(=O)C[C@@H](C(=O)N2CCCC2)NC(=O)[C@H](Cc2ccc(O)cc2)NC(=O)[C@H](CC(=O)O)NC(=O)[C@H](Cc2c[nH]c3ccccc23)NC(=O)[C@H](Cc2ccc(O)cc2)NC(=O)[C@H](CC(=O)O)NC(=O)[C@H](Cc2ccccc2)NC(=O)[C@H](Cc2c[nH]c3ccccc23)NC1=O) [PP18] please.
Solution: 0.2
